study target: HSA (Homo sapiens, UniProt P02768)
Construct: HSA (≥96%) and six PFAS were all purchased from Aladdin Chemicals (Shanghai, China); purchased Aladdin Chemicals (Shanghai, China)
Sequence (P02768 25-609): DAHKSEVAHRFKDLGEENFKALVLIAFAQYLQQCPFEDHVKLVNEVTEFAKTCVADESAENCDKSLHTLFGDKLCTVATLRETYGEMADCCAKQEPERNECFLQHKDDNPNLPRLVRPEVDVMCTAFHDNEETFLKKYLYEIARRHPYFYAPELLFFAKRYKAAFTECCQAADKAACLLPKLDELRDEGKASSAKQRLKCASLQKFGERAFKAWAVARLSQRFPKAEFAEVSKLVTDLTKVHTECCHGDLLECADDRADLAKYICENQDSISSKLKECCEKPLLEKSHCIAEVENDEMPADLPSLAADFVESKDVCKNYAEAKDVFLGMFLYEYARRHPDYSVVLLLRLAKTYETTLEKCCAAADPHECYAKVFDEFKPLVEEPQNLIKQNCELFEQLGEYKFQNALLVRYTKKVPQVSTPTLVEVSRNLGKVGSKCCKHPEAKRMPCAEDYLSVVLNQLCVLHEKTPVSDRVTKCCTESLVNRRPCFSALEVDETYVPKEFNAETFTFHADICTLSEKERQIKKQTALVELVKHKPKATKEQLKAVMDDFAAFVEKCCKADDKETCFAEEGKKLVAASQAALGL
protocol: Circular dichroism (CD) spectrum, secondary structure of HSA
assay context: HSA:PFAS 1:18, 298 K; HSA alone 16.9
Item-by-item account of HSA secondary structure: β-Turn
Your answer should be a plain number; it is taken to be in %.

O=C(O)C(F)(F)OC(F)(F)C(F)(F)OC(F)(F)C(F)(F)OC(F)(F)F    17.3

Continue with the molecule presented below.
Entry under review: O=C(O)C(F)(OC(F)(F)C(F)(OC(F)(F)C(F)(F)C(F)(F)F)C(F)(F)F)C(F)(F)F (stereo not drawn) . Reported HSA secondary structure: β-Turn?
15.8

====

study target: HSA (Homo sapiens)
Construct: HSA (≥96%) and six PFAS were all purchased from Aladdin Chemicals (Shanghai, China); purchased Aladdin Chemicals (Shanghai, China)
protocol: 3D-EEM fluorescence spectra of HSA–PFAS
assay context: HSA 1 × 10^−6, PFAS 1.8 × 10^−5 mol·L^−1; HSA alone 996.906
Entries annotated with measured 3D-EEM Peak B Intensity F
Just the number in a.u., nothing appended.

Answered examples (3):
O=C(O)C(F)(F)C(F)(F)C(F)(F)C(F)(F)C(F)(F)C(F)(F)C(F)(F)F [PFOA, Perfluorooctanoic Acid]    812.58
O=C(O)C(F)(F)C(F)(F)C(F)(F)C(F)(F)C(F)(F)C(F)(F)C(F)(F)C(F)(F)F [PFNA, Perfluorononanoic Acid]    800.96
O=C(O)C(F)(F)C(F)(F)C(F)(F)C(F)(F)C(F)(F)C(F)(F)C(=O)O [DFSA, Dodecafluorosuberic Acid]    839.38

What 3D-EEM Peak B Intensity F value was documented for this compound, O=C(O)C(F)(OC(F)(F)C(F)(OC(F)(F)C(F)(F)C(F)(F)F)C(F)(F)F)C(F)(F)F (stereo not drawn) [HFPO-TA] ?
861.38

Then what about the compound O=C(O)C(F)(F)OC(F)(F)C(F)(F)OC(F)(F)C(F)(F)OC(F)(F)F [PFO3DA, Perfluoro-3,6,9-trioxadecanoic Acid] ?
886.91

For O=C(O)C(F)(F)C(F)(F)C(F)(F)C(F)(F)C(F)(F)C(F)(F)F [PFHpA, Perfluoroheptanoic Acid] then?
997.01

====

study target: Human Serum Albumin (HSA) (Homo sapiens, UniProt P02768)
Construct: HSA (≥96%) and six PFAS were all purchased from Aladdin Chemicals (Shanghai, China); purchased Aladdin Chemicals (Shanghai, China)
Sequence (P02768 25-609): as above
protocol: Fluorescence quenching of HSA by PFAS (Stern–Volmer, double logarithmic and Van't Hoff analysis)
Type: binding
assay context: T = 298 K
The following compounds are listed with their measured KSV (Stern–Volmer quenching constant) values.

Some compounds with recorded KSV (Stern–Volmer quenching constant):
O=C(O)C(F)(F)C(F)(F)C(F)(F)C(F)(F)C(F)(F)C(F)(F)C(=O)O [DFSA, Dodecafluorosuberic Acid]    0.58 ± 0.06 × 10^4 L·mol^−1
O=C(O)C(F)(F)OC(F)(F)C(F)(F)OC(F)(F)C(F)(F)OC(F)(F)F [PFO3DA, Perfluoro-3,6,9-trioxadecanoic Acid]    1.05 ± 0.06 × 10^4 L·mol^−1
O=C(O)C(F)(F)C(F)(F)C(F)(F)C(F)(F)C(F)(F)C(F)(F)C(F)(F)C(F)(F)F [PFNA, Perfluorononanoic Acid]    2.52 ± 0.10 × 10^4 L·mol^−1
O=C(O)C(F)(F)C(F)(F)C(F)(F)C(F)(F)C(F)(F)C(F)(F)F [PFHpA, Perfluoroheptanoic Acid]    0.69 ± 0.05 × 10^4 L·mol^−1

Query: KSV (Stern–Volmer quenching constant); subject: O=C(O)C(F)(OC(F)(F)C(F)(OC(F)(F)C(F)(F)C(F)(F)F)C(F)(F)F)C(F)(F)F (stereo not drawn) [HFPO-TA]
1.78 ± 0.09 × 10^4 L·mol^−1

Now consider O=C(O)C(F)(F)C(F)(F)C(F)(F)C(F)(F)C(F)(F)C(F)(F)C(F)(F)F [PFOA, Perfluorooctanoic Acid] and answer again.
1.39 ± 0.07 × 10^4 L·mol^−1
